# target system: UniProt P18825
# Sequence (P18825 1-462): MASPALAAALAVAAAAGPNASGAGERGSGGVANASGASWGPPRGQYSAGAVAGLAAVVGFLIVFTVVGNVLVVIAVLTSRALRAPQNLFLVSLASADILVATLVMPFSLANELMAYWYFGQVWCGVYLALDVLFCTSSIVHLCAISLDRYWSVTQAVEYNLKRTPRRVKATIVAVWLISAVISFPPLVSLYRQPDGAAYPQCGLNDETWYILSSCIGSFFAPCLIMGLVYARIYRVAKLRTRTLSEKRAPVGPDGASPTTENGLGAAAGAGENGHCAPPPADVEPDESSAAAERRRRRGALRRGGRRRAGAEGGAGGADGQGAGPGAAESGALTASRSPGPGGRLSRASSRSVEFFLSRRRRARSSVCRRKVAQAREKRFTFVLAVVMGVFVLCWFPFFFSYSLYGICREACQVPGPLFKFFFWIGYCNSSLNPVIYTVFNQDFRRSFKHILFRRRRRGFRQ
# assay name: Determination of alpha2C antagonistic activity in vitro (FLIPR calcium assay)
Structures can show the parent of a compound that is named as a salt.
measured endpoint: IC50 (nM)

# annotated cases, reported IC50 shown
[[record]]
compound = "O=C1CN(C2CC2)C(=O)N1[C@H]1CCCN(C[C@H]2COc3ccccc3O2)C1"
measured_endpoint = "IC50"
recorded_value = 17.5

[[record]]
compound = "O=C1C2CCCC2C(=O)N1[C@H]1CCCN(C[C@H]2COc3ccccc3O2)C1 (some centres unmarked) [example 92, hydrochloride]"
measured_endpoint = "IC50"
recorded_value = 0.15

[[record]]
compound = "CC(C)C1CN([C@H]2CCCN(C[C@H]3COc4ccccc4O3)C2)C(=O)O1 (some centres unmarked)"
measured_endpoint = "IC50"
recorded_value = 7.65


(a) O=C1c2scnc2CN1[C@H]1CCCN(C[C@H]2COc3ccccc3O2)C1
(b) O=C1CN(C2COC2)C(=O)N1[C@H]1CCCN(C[C@H]2COc3ccccc3O2)C1
(c) O=C1c2cncnc2CN1[C@H]1CCCN(C[C@H]2COc3ccccc3O2)C1
*Q* Hey, quick one: sort these by IC50, largest value first please. Answer format: list of labels, ordered as asked.
*A* b, c, a
(b: 132 nM, c: 18 nM, a: 5.4 nM)

---

# target system: UniProt:P18825
# assay name: Determination of alpha2C antagonistic activity in vitro (FLIPR calcium assay)
pIC50: −log10 of the molar value.
measured endpoint: pIC50

(1) O=S1(=O)Cc2ccccc2N1[C@H]1CCCN(C[C@H]2COc3ccccc3O2)C1
(2) Cn1c(=O)n([C@H]2CCCN(C[C@H]3COc4ccccc4O3)C2)c2ccccc21
(3) O=C1C(=O)N([C@H]2CCCN(C[C@H]3COc4ccccc4O3)C2)C(=O)N1Cc1ccncc1
(4) O=C1C2C3C=CC(C3)C2C(=O)N1[C@H]1CCCN(C[C@H]2COc3ccccc3O2)C1 (some centres unmarked)
*Q* Ordering criterion: pIC50; begin with the maximum. Answer format: list of labels, ordered as asked.
*A* 4, 3, 1, 2
(4: 10.70, 3: 8.66, 1: 7.71, 2: 6.64)

---

# target system: human alpha2C receptors (Homo sapiens)
# assay name: Determination of alpha2C antagonistic activity in vitro (FLIPR calcium assay)
# applied conditions: Alpha 2C Adrenaline Kb, Kb calculated from IC50 with the Cheng-Prusoff equation; adrenaline as agonist; CHO cells, human alpha2C
measured endpoint: Kb (nM)

[[record]]
compound = "CSc1ncc2c(n1)C(=O)N([C@H]1CCCN(C[C@H]3COc4ccccc4O3)C1)C2"
unit_name = "nM"
recorded_value = 51.2


(1) O=C1OC(c2ccc(F)cc2)CN1[C@H]1CCCN(C[C@H]2COc3ccccc3O2)C1 (stereo partly shown)
(2) CC(C)N1C(=O)C(=O)N([C@H]2CCCN(C[C@H]3COc4ccccc4O3)C2)C1=O
*Q* Please indicate which has the smaller reported Kb: 1 , or 2 . // output: label of the selected item
*A* 2
(2: 0.028 nM, 1: 0.191 nM)
